These data points were gathered from ChEMBL document CHEMBL2396637.

Reported Ratio IC50 is given for each of the following compounds.
assay: Selectivity ratio of IC50 for rabbit voltage-dependent L-type calcium channel Cav1.2alpha-1C to IC50 for rat voltage-dependent L-type calcium channel Cav1.3alpha-1D
QUANTITY MEASURED: Ratio IC50

CC1=C(C(=O)OC(C)C)C(c2cccc([N+](=O)[O-])c2)NC(=S)N1 (stereo not given) : 0.7
COC(=O)SC1=NC(C)=C(C(=O)OC(C)C)C(c2cccc([N+](=O)[O-])c2)N1C(=O)OC (stereo not given) : 0.9
CC1=C(C(=O)OC(C)C)[C@@H](c2cccc([N+](=O)[O-])c2)N(C(=O)OC(C)C)C(=O)N1 : 2.1
COC(=O)C1=C(C)N=C(SC)NC1c1cccc([N+](=O)[O-])c1 (stereo not given) : 0.3
COC(=O)C1=C(C)NC(=O)NC1c1cccc([N+](=O)[O-])c1 (stereo not given) : 0.6
COC(=O)C1=C(C)OC(NC(C)=O)=C(C(=O)OC(C)C)C1c1cccc([N+](=O)[O-])c1 (stereo not given) : 0.5
COC(=O)C1=C(C)NC(C)=C(C(=O)OC(C)C)C1c1cccc2nonc12 (stereo not given) : 0.5
CC(C)OC(=O)C1=C(C(C)C)NC(=O)N(C(=O)OC(C)C)C1c1cccc([N+](=O)[O-])c1 (stereo not given) : 0.5
CC1=C(C(=O)OC(C)C)C(c2cccc([N+](=O)[O-])c2)N(C(=O)C(C)C)C(=O)N1 (stereo not given) : 0.5
COC(=O)C1=C(C)NC(=S)N(C(=O)OC(C)C)C1c1cccc([N+](=O)[O-])c1 (stereo not given) : 0.2
CCOC(=O)C1=C(N)OC(C)=C(C(=O)OC)C1c1cccc([N+](=O)[O-])c1 (stereo not given) : 0.2
CCOC(=O)C1=C(NC(C)=O)OC(C)=C(C(=O)OC)C1c1cccc([N+](=O)[O-])c1 (stereo not given) : 0.5
COC(=O)N1C(=S)NC(C)=C(C(=O)OC(C)C)C1c1cccc([N+](=O)[O-])c1 (racemic) : 0.6
COC(=O)N1C(=O)NC(C)=C(C(=O)OC(C)C)C1c1cccc([N+](=O)[O-])c1 (racemic) : 0.9
COC(=O)C1=C(C)NC(=O)N(C(=O)OC(C)C)C1c1cccc([N+](=O)[O-])c1 (stereo not given) : 0.6
COC(=O)C1=C(C)N=C(SC)N(C(=O)OC(C)C)C1c1cccc([N+](=O)[O-])c1 (stereo not given) : 3
COC(=O)N1C(=O)NC(C)=C(C(=O)OC(C)C)[C@H]1c1cccc([N+](=O)[O-])c1 : 1.2
COC(=O)N1C(=S)NC(C)=C(C(=O)OC(C)C)[C@@H]1c1cccc([N+](=O)[O-])c1 : 0.8
CCOC(=O)C1=C(NC(=O)C(C)C)OC(C)=C(C(=O)OC)C1c1cccc([N+](=O)[O-])c1 (stereo not given) : 0.4
COC(=O)N1C(=S)NC(C)=C(C(=O)OC(C)C)[C@H]1c1cccc([N+](=O)[O-])c1 : 0.9
COC(=O)N1C(=O)NC(C)=C(C(=O)OC(C)C)[C@@H]1c1cccc([N+](=O)[O-])c1 : 0.6
CSC1=NC(c2cccc([N+](=O)[O-])c2)C(C(=O)OC(C)C)=C(C)N1 (stereo not given) : 0.2
CNC1=NC(C)=C(C(=O)OC(C)C)C(c2cccc([N+](=O)[O-])c2)N1C(=O)OC (stereo not given) : 0.8
COC(=O)C1=C(C)OC(N)=C(C(=O)OC(C)C)C1c1cccc([N+](=O)[O-])c1 (stereo not given) : 0.2
COC(=O)N1C(=O)N(C(=O)OC)C(c2cccc([N+](=O)[O-])c2)C(C(=O)OC(C)C)=C1C (stereo not given) : 1.1
CC1=C(C(=O)OC(C)C)C(c2cccc([N+](=O)[O-])c2)C(C(=O)OC(C)C)=C(N)O1 (stereo not given) : 0.6
CNC1=NC(C)=C(C(=O)OC)C(c2cccc([N+](=O)[O-])c2)N1C(=O)OC(C)C (stereo not given) : 0.4
COC(=O)N1C(SC)=NC(C)=C(C(=O)OC(C)C)C1c1cccc([N+](=O)[O-])c1 (stereo not given) : 0.4
CCOC(=O)N1C(=O)NC(C(C)C)=C(C(=O)OC)C1c1cccc([N+](=O)[O-])c1 (stereo not given) : 0.6
CC1=C(C(=O)OC(C)C)[C@H](c2cccc([N+](=O)[O-])c2)N(C(=O)OC(C)C)C(=O)N1 : 1.6

###

biological target: Voltage-dependent L-type calcium channel subunit alpha-1C (Oryctolagus cuniculus); test: Antagonist activity at rabbit voltage-dependent L-type calcium channel Cav1.2alpha-1C expressed in HEK293 cells by FLIPR assay
Sequence (P15381 whole entry): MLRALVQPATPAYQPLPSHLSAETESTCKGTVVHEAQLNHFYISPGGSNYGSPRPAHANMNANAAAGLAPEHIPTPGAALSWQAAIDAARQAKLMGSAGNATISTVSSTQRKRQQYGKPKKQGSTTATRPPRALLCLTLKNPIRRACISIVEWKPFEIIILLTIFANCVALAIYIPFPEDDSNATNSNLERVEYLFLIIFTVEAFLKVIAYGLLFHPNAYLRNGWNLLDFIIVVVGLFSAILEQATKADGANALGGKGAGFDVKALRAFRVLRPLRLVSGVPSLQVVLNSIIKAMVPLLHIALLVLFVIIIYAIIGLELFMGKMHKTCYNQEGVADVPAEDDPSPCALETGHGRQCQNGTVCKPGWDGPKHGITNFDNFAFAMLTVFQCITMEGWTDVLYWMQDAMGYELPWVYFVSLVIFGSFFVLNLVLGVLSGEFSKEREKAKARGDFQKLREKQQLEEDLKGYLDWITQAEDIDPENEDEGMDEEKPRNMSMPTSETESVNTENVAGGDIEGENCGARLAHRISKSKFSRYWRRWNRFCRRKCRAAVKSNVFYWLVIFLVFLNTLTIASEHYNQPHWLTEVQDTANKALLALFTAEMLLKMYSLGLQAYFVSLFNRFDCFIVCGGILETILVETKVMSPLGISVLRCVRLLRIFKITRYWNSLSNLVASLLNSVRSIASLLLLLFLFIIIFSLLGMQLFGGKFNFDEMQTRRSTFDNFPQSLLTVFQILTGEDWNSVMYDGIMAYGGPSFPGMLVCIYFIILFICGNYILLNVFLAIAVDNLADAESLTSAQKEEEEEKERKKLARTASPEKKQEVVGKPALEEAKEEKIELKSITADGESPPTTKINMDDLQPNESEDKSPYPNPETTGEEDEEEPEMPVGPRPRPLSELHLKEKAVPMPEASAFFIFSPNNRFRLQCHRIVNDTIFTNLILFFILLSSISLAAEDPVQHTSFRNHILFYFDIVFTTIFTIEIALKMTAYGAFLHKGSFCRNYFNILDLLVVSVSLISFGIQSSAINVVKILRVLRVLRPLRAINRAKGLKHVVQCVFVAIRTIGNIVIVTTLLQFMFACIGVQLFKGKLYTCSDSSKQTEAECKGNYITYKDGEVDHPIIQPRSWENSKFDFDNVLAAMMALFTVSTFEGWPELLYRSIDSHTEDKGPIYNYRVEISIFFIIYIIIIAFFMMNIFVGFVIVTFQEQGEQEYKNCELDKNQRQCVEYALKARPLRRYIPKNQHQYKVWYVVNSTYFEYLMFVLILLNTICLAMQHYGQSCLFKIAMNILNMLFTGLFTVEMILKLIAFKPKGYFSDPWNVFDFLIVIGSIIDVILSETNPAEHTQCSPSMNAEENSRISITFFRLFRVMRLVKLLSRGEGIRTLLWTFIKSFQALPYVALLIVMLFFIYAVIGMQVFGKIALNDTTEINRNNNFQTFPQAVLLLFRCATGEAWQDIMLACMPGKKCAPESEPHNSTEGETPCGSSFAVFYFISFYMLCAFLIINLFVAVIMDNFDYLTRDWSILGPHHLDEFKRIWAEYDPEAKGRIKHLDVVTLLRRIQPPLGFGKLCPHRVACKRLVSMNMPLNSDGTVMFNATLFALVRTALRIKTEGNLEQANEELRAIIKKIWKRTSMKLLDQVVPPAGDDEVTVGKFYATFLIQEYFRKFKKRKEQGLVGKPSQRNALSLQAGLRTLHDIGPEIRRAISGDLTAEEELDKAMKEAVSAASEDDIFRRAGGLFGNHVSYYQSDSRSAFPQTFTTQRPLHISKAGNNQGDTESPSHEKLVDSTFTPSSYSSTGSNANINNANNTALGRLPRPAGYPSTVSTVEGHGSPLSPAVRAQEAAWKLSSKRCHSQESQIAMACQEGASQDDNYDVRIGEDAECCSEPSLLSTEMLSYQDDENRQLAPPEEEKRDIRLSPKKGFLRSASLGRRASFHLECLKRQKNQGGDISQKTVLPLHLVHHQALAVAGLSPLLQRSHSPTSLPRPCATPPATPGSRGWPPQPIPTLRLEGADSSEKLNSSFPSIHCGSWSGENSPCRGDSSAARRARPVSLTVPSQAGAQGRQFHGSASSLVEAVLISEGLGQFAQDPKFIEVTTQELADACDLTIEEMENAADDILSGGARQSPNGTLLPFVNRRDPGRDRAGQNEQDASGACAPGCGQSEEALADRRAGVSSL
pIC50: −log10 of the molar value.
QUANTITY MEASURED: pIC50

COC(=O)C1=C(C)OC(NC(C)=O)=C(C(=O)OC(C)C)C1c1cccc([N+](=O)[O-])c1 (stereo unspecified) : 5.21
CSC1=NC(c2cccc([N+](=O)[O-])c2)C(C(=O)OC(C)C)=C(C)N1 (stereo unspecified) : 6.38
COC(=O)C1=C(C)NC(=S)NC1c1cccc([N+](=O)[O-])c1 (stereo unspecified) : 4.26
COC(=O)N1C(=O)NC(C)=C(C(=O)OC(C)C)[C@@H]1c1cccc([N+](=O)[O-])c1 : 4.66
CCOC(=O)N1C(=O)N(C(=O)OCC)C(c2cccc([N+](=O)[O-])c2)C(C(=O)OC)=C1C(C)C (stereo unspecified) : 4.86
CC1=C(C(=O)OC(C)C)C(c2cccc([N+](=O)[O-])c2)NC(=O)N1 (stereo unspecified) : 4.24
COC(=O)SC1=NC(C)=C(C(=O)OC(C)C)C(c2cccc([N+](=O)[O-])c2)N1C(=O)OC (stereo unspecified) : 5.99
CCOC(=O)C1=C(NC(C)=O)OC(C)=C(C(=O)OC)C1c1cccc([N+](=O)[O-])c1 (stereo unspecified) : 5.32
CC1=C(C(=O)OC(C)C)C(c2cccc([N+](=O)[O-])c2)N(C(=O)C(C)C)C(=O)N1 (stereo unspecified) : 6.30
COC(=O)C1=C(C(C)C)NC(=O)N(C(=O)C(C)C)C1c1cccc([N+](=O)[O-])c1 (stereo unspecified) : 4.25
COC(=O)C1=C(C)OC(N)=C(C(=O)OC(C)C)C1c1cccc([N+](=O)[O-])c1 (stereo unspecified) : 6.39
CCOC(=O)N1C(=O)NC(C(C)C)=C(C(=O)OC)C1c1cccc([N+](=O)[O-])c1 (stereo unspecified) : 4.83
COC(=O)N1C(=O)N(C(=O)OC)C(c2cccc([N+](=O)[O-])c2)C(C(=O)OC(C)C)=C1C (stereo unspecified) : 5.21
COC(=O)N1C(=S)NC(C)=C(C(=O)OC(C)C)[C@H]1c1cccc([N+](=O)[O-])c1 : 6.30
COC(=O)C1=C(C(C)C)NC(=O)N(C(=O)OC(C)C)C1c1cccc([N+](=O)[O-])c1 (stereo unspecified) : 4.98
CC1=C(C(=O)OC(C)C)C(c2cccc([N+](=O)[O-])c2)N(C(=O)OC(C)C)C(=O)N1 (racemic) : 6.19
COC(=O)N1C(=S)NC(C)=C(C(=O)OC(C)C)C1c1cccc([N+](=O)[O-])c1 (racemic) : 6.46
COC(=O)C1=C(C)N=C(SC)N(C(=O)OC(C)C)C1c1cccc([N+](=O)[O-])c1 (stereo unspecified) : 4.79
CC1=C(C(=O)OC(C)C)C(c2cccc([N+](=O)[O-])c2)NC(=S)N1 (stereo unspecified) : 4.97
COC(=O)C1=C(C)N=C(SC)NC1c1cccc([N+](=O)[O-])c1 (stereo unspecified) : 5.48

###

molecular target: Voltage-dependent L-type calcium channel subunit alpha-1D (Rattus norvegicus, UniProt P27732); test: Antagonist activity at rat voltage-dependent L-type calcium channel Cav1.3alpha-1D expressed in HEK293 cells by FLIPR assay
Sequence (P27732 whole entry): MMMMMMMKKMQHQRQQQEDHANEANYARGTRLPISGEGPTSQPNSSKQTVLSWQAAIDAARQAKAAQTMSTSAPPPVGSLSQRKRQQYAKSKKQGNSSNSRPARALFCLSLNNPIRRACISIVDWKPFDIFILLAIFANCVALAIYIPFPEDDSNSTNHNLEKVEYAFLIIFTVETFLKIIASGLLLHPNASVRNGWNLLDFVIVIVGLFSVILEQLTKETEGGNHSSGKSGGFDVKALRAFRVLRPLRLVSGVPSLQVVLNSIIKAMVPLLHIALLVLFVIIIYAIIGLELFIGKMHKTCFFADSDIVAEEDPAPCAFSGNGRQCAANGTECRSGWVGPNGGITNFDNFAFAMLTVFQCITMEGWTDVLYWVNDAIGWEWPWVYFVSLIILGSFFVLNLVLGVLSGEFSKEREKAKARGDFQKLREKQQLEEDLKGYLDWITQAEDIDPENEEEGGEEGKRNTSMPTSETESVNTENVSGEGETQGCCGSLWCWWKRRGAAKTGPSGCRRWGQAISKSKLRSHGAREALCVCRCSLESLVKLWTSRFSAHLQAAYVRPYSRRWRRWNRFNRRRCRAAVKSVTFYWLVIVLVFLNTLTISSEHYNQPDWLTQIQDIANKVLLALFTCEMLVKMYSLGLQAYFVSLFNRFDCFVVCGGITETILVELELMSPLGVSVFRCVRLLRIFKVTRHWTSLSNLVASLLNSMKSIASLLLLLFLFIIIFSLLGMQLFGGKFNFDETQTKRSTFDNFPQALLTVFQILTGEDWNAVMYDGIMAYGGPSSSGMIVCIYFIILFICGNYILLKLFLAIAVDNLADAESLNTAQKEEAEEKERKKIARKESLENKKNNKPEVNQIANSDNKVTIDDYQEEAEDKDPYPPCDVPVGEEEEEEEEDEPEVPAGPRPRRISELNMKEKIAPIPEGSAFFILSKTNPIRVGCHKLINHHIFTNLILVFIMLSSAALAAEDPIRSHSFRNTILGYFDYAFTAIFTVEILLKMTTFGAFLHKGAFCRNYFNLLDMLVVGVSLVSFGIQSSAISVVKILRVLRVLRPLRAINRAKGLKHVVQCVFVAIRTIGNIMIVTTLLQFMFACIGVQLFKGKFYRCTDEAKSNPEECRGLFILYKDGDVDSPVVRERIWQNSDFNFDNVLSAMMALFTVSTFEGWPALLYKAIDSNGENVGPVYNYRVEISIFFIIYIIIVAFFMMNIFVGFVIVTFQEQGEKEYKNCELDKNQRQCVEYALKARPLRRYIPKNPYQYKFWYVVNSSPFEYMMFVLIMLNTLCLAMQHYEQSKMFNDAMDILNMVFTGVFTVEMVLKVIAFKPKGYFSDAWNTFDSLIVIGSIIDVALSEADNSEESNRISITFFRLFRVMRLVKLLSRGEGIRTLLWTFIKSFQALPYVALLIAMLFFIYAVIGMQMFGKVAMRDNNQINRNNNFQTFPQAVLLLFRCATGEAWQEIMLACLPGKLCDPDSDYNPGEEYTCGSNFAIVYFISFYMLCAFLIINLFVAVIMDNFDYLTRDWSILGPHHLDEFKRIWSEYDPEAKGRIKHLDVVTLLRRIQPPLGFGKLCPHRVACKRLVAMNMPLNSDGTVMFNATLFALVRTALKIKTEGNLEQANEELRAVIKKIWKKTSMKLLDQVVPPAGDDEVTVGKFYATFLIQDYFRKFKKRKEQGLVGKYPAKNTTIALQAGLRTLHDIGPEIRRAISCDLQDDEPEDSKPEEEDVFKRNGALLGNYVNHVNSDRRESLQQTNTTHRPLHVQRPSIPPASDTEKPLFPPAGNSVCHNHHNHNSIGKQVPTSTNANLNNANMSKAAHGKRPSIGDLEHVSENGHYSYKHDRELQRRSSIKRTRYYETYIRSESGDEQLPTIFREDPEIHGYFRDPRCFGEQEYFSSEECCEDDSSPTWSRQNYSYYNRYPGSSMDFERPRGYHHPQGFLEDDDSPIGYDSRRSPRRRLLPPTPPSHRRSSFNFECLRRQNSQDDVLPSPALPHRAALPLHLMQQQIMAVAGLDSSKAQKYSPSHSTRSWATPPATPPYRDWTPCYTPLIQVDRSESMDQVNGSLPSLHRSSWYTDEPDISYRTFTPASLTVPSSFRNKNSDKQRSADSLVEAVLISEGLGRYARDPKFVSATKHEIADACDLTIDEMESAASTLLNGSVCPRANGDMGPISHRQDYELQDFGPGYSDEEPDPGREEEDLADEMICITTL
pIC50: −log10 of the molar value.
QUANTITY MEASURED: pIC50

CCOC(=O)C1=C(NC(=O)C(C)C)OC(C)=C(C(=O)OC)C1c1cccc([N+](=O)[O-])c1 (stereo not drawn) : 5.00
COC(=O)C1=C(C)OC(N)=C(C(=O)OC(C)C)C1c1cccc([N+](=O)[O-])c1 (stereo not drawn) : 5.74
COC(=O)N1C(=O)NC(C)=C(C(=O)OC(C)C)C1c1cccc([N+](=O)[O-])c1 (racemic) : 5.53
